Source listed as ChEMBL document CHEMBL6083252.

# protocol_description: Cytotoxicity against human MKN45-DDP-R cells assessed as inhibition of cell growth incubated for 48 hrs by CCK8 assay
# Format: functional, cell-based
# settings: MKN45-DDP-R (Cisplatin-resistant MKN45 cells)
value_type: pIC50
Here pIC50 is given on a logarithmic scale as minus log10 of the concentration in mol/L.

Qu. Given the compound COc1cc2c(cc1OC)CN(CCNC(=O)c1cc(=O)c3ccc4ccccc4c3o1)CC2 , what is its reported pIC50?
Ans. 5.18

----------
# protocol_description: Reversal of drug resistance in human DOX-SW620/AD300-1B1 cells assessed as decrease in doxorubicin IC50 at 5 uM after 48 hrs in presence of doxorubicin by CCK8 assay (reference value: 64.5 +/- 30 uM)
# Assay type: functional, cell-based
# settings: DOX-SW620/AD300-1B1, 48 h
value_type: pIC50
Here pIC50 is given on a logarithmic scale as minus log10 of the concentration in mol/L.

The following compounds have reported results that may help.
COc1cc2c(cc1OC)CN(CCc1ccc(NC(=O)c3cc(=O)c4cc(OC)c5ccccc5c4o3)cc1)CC2 ... 5.33
O=c1cc(-c2ccccc2)oc2c1ccc1ccccc12 ... 5.62

Kindly review the next compound as well.
Qu. Given the compound COc1ccc(C(=O)Nc2ccccc2C(=O)Nc2ccc(CCN3CCc4cc(OC)c(OC)cc4C3)cc2)cc1OC , what is its reported pIC50?
Ans. 4.40

----------
# Test system: SW620/AD300
# protocol_description: Reversal of multidrug resistance in human SW620/AD300 cells assessed as reversal fold by measuring ratio of doxorubicin IC50 to doxorubicin IC50 in presence of test compound at 5 uM
# Format: functional
I'd appreciate it if you marked entries Y when Ratio IC50 is lower than 10 and N when it is not.

Please review the entries below; each comes with its answer.
COc1cc2c(cc1OC)CN(C(=O)Cn1cc(-c3ccc(-c4cc(=O)c5ccc6ccccc6c5o4)cc3)nn1)CC2 ... Y
COc1cc2c(cc1OC)CN(CCc1ccc(NC(=O)c3cc(=O)c4ccc5ccccc5c4o3)cc1)CC2 ... N
COc1cc2c(cc1OC)CN(CCNC(=O)c1cc(=O)c3ccc4ccccc4c3o1)CC2 ... Y

Qu. Dear colleague, could you confirm whether Ratio IC50 of COc1cc2c(cc1OC)CN(CCNC(=O)c1cc(=O)c3cc(OC)c4ccccc4c3o1)CC2 falls below 10? Thanks.
Ans. N

Qu. Dear colleague, could you confirm whether Ratio IC50 of COc1cc2c(cc1OC)CN(C(=O)c1cc(=O)c3cc(OC)c4ccccc4c3o1)CC2 falls below 10? Thanks.
Ans. Y

Qu. Dear colleague, could you confirm whether Ratio IC50 of COc1cc2c(cc1OC)CN(C(=O)c1cc(=O)c3ccc4ccccc4c3o1)CC2 falls below 10? Thanks.
Ans. Y

Qu. Dear colleague, could you confirm whether Ratio IC50 of COc1cc2c(cc1OC)CN(C(=O)C1CCN(C(=O)c3cc(=O)c4cc(OC)c5ccccc5c4o3)CC1)CC2 falls below 10? Thanks.
Ans. Y

Qu. Dear colleague, could you confirm whether Ratio IC50 of COc1cc2c(cc1OC)CN(CCc1ccc(NC(=O)c3ccccc3NC(=O)c3cc(=O)c4ccc5ccccc5c4o3)cc1)CC2 falls below 10? Thanks.
Ans. N

Qu. Dear colleague, could you confirm whether Ratio IC50 of COc1cc2c(cc1OC)CN(C(=O)C1CCN(C(=O)c3cc(=O)c4ccc5ccccc5c4o3)CC1)CC2 falls below 10? Thanks.
Ans. N

----------
Item-by-item account of Ratio IC50
# System: SW620/AD300
# protocol_description: Reversal of multidrug resistance in human SW620/AD300 cells assessed as reversal fold by measuring ratio of doxorubicin IC50 to doxorubicin IC50 in presence of test compound at 5 uM
# Format: functional
Reply with just the number.

The following compounds have reported results that may help.
COc1ccc(C(=O)Nc2ccccc2C(=O)Nc2ccc(CCN3CCc4cc(OC)c(OC)cc4C3)cc2)cc1OC ... 39.6
COc1cc2c(cc1OC)CN(CCc1ccc(NC(=O)c3cc(=O)c4cc(OC)c5ccccc5c4o3)cc1)CC2 ... 44.4

Kindly review the next compound as well.
Qu. Given the compound COc1cc2c(cc1OC)CN(CCN1CCN(C(=O)c3cc(=O)c4ccc5ccccc5c4o3)CC1)CC2 , what is its reported Ratio IC50?
Ans. 16.8
